Reference source for all entries: patent US20240132498A1

Parameter: activity at 30 min, 50 µM. Scope: all listed entries.
molecular target: CYP3A4 (Homo sapiens); construct: from tissue; host or cells: pooled human liver microsomes; assay: Time-dependent inhibition of CYP450 enzymes in human liver microsomes: CYP3A4-M (midazolam probe); format: in vitro ADME; conditions: human, pooled human liver microsomes; CYP3A4-M (midazolam probe), 50 μM, 30 minutes incubation; read-out: % Activity NADPH T30
Sequence (P08684 whole entry): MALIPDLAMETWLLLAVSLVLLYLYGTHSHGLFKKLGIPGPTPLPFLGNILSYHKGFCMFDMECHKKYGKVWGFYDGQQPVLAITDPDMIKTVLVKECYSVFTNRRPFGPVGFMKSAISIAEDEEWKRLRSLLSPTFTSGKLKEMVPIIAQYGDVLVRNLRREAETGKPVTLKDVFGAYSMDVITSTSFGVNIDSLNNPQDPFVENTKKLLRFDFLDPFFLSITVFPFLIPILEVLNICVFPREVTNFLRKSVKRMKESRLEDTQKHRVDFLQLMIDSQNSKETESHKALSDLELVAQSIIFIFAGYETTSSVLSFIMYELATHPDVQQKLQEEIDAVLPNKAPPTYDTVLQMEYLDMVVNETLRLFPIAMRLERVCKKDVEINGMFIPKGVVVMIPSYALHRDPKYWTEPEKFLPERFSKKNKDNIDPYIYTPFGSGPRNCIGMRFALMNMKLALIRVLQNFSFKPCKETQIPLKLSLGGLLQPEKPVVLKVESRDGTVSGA

Compound	Target entity	activity at 30 min, 50 µM [%]
O=C1[C@H](C2COC2)N(Cc2ccc(C(F)(F)F)cc2)C(=O)CN1c1ncc(Cl)cc1F [Comparator C, reference compound]	CYP3A4 (Homo sapiens)	33
C[C@H]1CC[C@H](N2CC(=O)N(Cc3ccc(F)c(F)c3)C3(CN(C=O)C3)C2=O)CC1	CYP3A4 (Homo sapiens)	78

###

Molecular target: CYP2C8 (Homo sapiens, UniProt P10632)
Construct: from tissue; host or cells: pooled human liver microsomes
Sequence (P10632 1-490): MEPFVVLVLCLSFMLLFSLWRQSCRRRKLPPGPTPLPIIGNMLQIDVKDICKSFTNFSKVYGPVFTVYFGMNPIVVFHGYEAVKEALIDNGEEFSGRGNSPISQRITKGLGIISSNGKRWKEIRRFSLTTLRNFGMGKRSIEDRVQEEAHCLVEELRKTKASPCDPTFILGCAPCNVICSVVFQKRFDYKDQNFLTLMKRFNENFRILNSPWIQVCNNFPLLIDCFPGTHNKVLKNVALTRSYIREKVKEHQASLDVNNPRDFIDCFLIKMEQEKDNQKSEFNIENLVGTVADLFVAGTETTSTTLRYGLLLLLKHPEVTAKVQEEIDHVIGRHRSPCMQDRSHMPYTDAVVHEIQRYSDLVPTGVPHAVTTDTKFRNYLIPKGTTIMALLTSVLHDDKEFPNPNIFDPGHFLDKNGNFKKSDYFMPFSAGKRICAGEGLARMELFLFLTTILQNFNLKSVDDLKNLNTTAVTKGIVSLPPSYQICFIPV
Assay: Time-dependent inhibition of CYP450 enzymes in human liver microsomes: CYP2C8
Format: in vitro ADME
Conditions: human, pooled human liver microsomes; CYP2C8, 50 μM, time zero; read-out: % Activity NADPH T0

Compound	Unit descriptor	activity at 0 min, 50 µM
C[C@H]1CC[C@H](N2CC(=O)N(Cc3ccc(F)c(F)c3)C3(CN(C=O)C3)C2=O)CC1 [Compound 1]	%	97

###

test: Monkey single dose pharmacokinetics; type: in vivo; conditions: male, plasma, iv, Cynomolgus Monkey, read-out: Vss
Parameter: Vd. Scope: all listed entries.

Compound	Unit descriptor	Vd
O=CN1CC2(C1)C(=O)N([C@H]1CC[C@H](C(F)F)CC1)CC(=O)N2Cc1ccc(C(F)(F)F)cc1	L/kg	4.35
C[C@H]1CC[C@H](N2CC(=O)N(Cc3ccc(F)c(F)c3)C3(CN(C=O)C3)C2=O)CC1	L/kg	8.89
CC(=O)N1CC2(C1)C(=O)N(c1ccc(C#N)cc1F)CC(=O)N2Cc1ccc(C(F)(F)F)cc1	L/kg	12.4
O=C1[C@H](C2COC2)N(Cc2ccc(C(F)(F)F)cc2)C(=O)CN1c1ncc(Cl)cc1F [Comparator C, reference compound]	L/kg	12
